// values below are reported z-score
- measurementDescription: Components of the Cytosolic LPS Sensing Pathway: Gene Identification via Genome-wide siRNA Screen;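 further: robust z of the log signal after scaling to non-targeting control siRNA wells of the plate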
- testContext: RAW264.7 macrophages, IL-1a HTRF, actives lie on both sides, screened at 100 nM (by protocol), cells primed 5 h with Pam3CSK4 first
Among all 53,000 sequences or so, about 3,700 (7%) were called active. This excerpt belongs to a sample that is enriched for actives.
Just the number.

GCCAAGUCUGCUUCACGAGTT against Nyap1 | 1.82
GGAGUUCACGGAUCUUGAGTT against Ppp1r37 | 0.226
GGCUUCUUUAUGUUUCCUUTT against Usp48 | -1.46
GGUUAAGUUCCUCUGGAACTT against Pnliprp2 | -0.0719
GGAAGUCAACAAUGCAUUCTT against Olfr1451 | -0.133
GCUGAUCGCUUUGAUUCGATT against Fkbp11 | -0.495

Challenge: I'd like to know its z-score. The sequence in question is UCAUAGCAGAGAUUAGAAUTT against Hsfy2
Response given: -0.951

Challenge: What do you have for GCUACAAGUGUUGCCUGAATT against Slit1 ?
Response given: 1.21

Challenge: And for CCAAUUUGACCCAUACUAUTT against Crtc2 ?
Response given: 1.61

Challenge: Now this one: GGCUGAUUAGAAUACCUCCTT against Adra2b
Response given: 0.352

Challenge: Follow-up item: GGAUUGAAGUCCCUUUACUTT against Zdhhc16
Response given: 2.27

Challenge: Next sequence: GCAGGAACACUGGUUUGAATT against Otud5
Response given: -0.653

src = PubChem BioAssay AID1508600
